# Tested on: Saccharomyces cerevisiae
# measurement.description: protein stability index of tFT-peptide fusion (C-terminal peptide) (PSI (0-1 scale)); higher = more stable (slower turnover)
# test.parameters: genetic background: wild type; temperature: 30 C
Returns one of yes (1) or no (0); yes (1) when protein stability index is >= 0.7.

As a guide, the following entries are already answered.
{"columns": ["record.sequence", "category.label"],
 "data": [
  ["PRLLPPLGFLTF", "yes (1)"],
  ["FYIWFFRLIYFF", "no (0)"],
  ["PKNNHTKKKTGQ", "no (0)"]
]}

# check: protein stability index of QKKKKNKKQKTE is greater than or equal to 0.7
no (0)

hey, is protein stability index for this one >= 0.7? PPPPPVSSPLVT
no (0)

State whether the measured protein stability index reaches 0.7, counting equality as reaching it, for VCFCLGNVTMEF
yes (1)

# check: protein stability index of KVRAGLGIRITQ is greater than or equal to 0.7
no (0)

Check this sequence for protein stability index at or above 0.7: AQLVYVITAVRT
no (0)

hey, is protein stability index for this one >= 0.7? GRKTRSPFLVLM
no (0)

###

# Test system: Saccharomyces cerevisiae
# measurement.description: protein stability index of tFT-peptide fusion (C-terminal peptide) (PSI (0-1 scale)); higher = more stable (slower turnover)
# test.parameters: genetic background: wild type; temperature: 30 C
recorded.endpoint: protein stability index
API note: the answer field is a bare number with no unit suffix.

Known results for sequences:
{"columns": ["record.sequence", "readout.number"],
 "data": [
  ["FHSRGVASPQPP", 0.682],
  ["VTIDETMSKGIN", 0.698],
  ["RPAPPPHPLSPV", 0.7],
  ["PPSLFSSTQLLF", 0.71],
  ["EKKKKRNKVNQN", 0.709]
]}

// lookup protein stability index for PATQTRKETRTP
0.69

Report protein stability index for QNERRLPVGSYA please.
0.696

Fill in: protein stability index of LGSSGVVGYHLD is ___
0.71

So what's the measured protein stability index for this one? LPSGLTSPPRSS
0.712

For the sequence shown here, VREVTIGGGLGE , give the reported protein stability index.
0.707

What value of protein stability index has been recorded for this entry: EVTGGRGGEGGV
0.694

Given TSSEREGHYCVR , state its recorded protein stability index.
0.693

Fill blank: measured protein stability index of the sequence SFMPFVLPLSSP is ____.
0.71

Can you look up the measured protein stability index of EGNPPTRPRSLG for me?
0.682

###

Listed below: protein stability index values for each entry.
# Test system: Saccharomyces cerevisiae;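 also: PSI is a weighted mean of sequencing reads over stability bins, variants kept only with over 10 reads, mCherry proximal and sfGFP distal, peptide attached via GGGS linker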
# measurement.description: protein stability index of tFT-peptide fusion (C-terminal peptide) (PSI (0-1 scale)); higher = more stable (slower turnover)
# test.parameters: genetic background: wild type; temperature: 30 C
// keep it numeric: no unit symbol after the value

These recorded examples may help you get a feel for the data.
{"columns": ["record.sequence", "system.tested", "recorded.endpoint", "readout.number"],
 "data": [
  ["GRVFRGRNGRCM", "Saccharomyces cerevisiae", "protein stability index", 0.744],
  ["VHGGKREGGGEG", "Saccharomyces cerevisiae", "protein stability index", 0.667],
  ["TTEESGGEGEGG", "Saccharomyces cerevisiae", "protein stability index", 0.664],
  ["EKCIGKRGLTKY", "Saccharomyces cerevisiae", "protein stability index", 0.703],
  ["LPFPSCYLRASL", "Saccharomyces cerevisiae", "protein stability index", 0.779],
  ["PDRGLRLKRILP", "Saccharomyces cerevisiae", "protein stability index", 0.567],
  ["LVLPCLLLFPPS", "Saccharomyces cerevisiae", "protein stability index", 0.711],
  ["VVGVLLLYLNPF", "Saccharomyces cerevisiae", "protein stability index", 0.468]
]}

Which protein stability index reading was recorded for the sequence VVSDGARLVWGG ?
0.754

Request the reported protein stability index associated with IADDSSHGFRGE
0.716

For the sequence shown here, LGWVGGGGGWGC , give the reported protein stability index.
0.704

Give its protein stability index value. Item: KKKTIKNNERSK
0.69

For the sequence shown here, GPPPPLFAPWPF , give the reported protein stability index.
0.656

Would you mind telling me what protein stability index value was observed for GYYVLSIGGVIV ?
0.574
